Test: NCI Yeast Anticancer Drug Screen. Data for the rad50 strain (AID 155);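 note: 0% = growth of vehicle-only cultures of the same strain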
Conditions: S. cerevisiae rad50 strain growth inhibition; at 50.0 µM; active compounds read high
This is part of a sample that, as a whole, favours compounds with a hit. Of some 79,000 tested, about 15% had one in any assay.
Threshold rule: growth inhibition greater than or equal to 80% is 1.0; below that, 0.0.

compound: N#Cc1c(-c2ccc(Cl)cc2)c(C#N)c(=O)n(NS(=O)(=O)c2ccccc2)c1S
category.label: 0.0
--
compound: O=C1CCSC(=S)N1c1ccc(Br)c(Cl)c1
category.label: 0.0
--
compound: O=C(OCc1ccccc1)N1N=NC2C1C1CC(OCc3ccccc3)(OCc3ccccc3)C2O1 (stereo not drawn)
category.label: 0.0
--
compound: N#Cc1c(-c2ccc(Cl)c(Cl)c2)c(-c2ccc(Cl)c(Cl)c2)nn(CC(=O)O)c1=O
category.label: 0.0
--
compound: Cc1ccc(Nc2nc3c(s2)C(=O)c2ccccc2C3=O)cc1
category.label: 1.0
--
compound: Oc1cccc(/C=C/c2ccncc2)c1
category.label: 0.0
--
compound: Cc1nc2ccc3c(ccc4nc(C)c(N=Nc5ccc(C(=N)N)cc5)c(O)c43)c2c(O)c1N=Nc1ccc(C(=N)N)cc1
category.label: 1.0
--
compound: CCOC(=O)Nc1nc2ccc(Cn3cccc3)cc2[nH]1
category.label: 0.0

* * *

Test: NCI Yeast Anticancer Drug Screen. Data for the bub3 strain (AID 167)
Conditions: S. cerevisiae bub3 mutant strain, at 5.0 µM (retest, dose inferred, filed as 0.5), active compounds read high
This is part of a sample that, as a whole, favours compounds with a hit. Of some 79,000 tested, about 15% had one in any assay.
measured.metric: growth inhibition (%)

molecule: O=[N+]([O-])CCc1ccco1
quantitative.result: 4
--
molecule: C/C=C/C=C\C1OC(O)([C@H](CC)C(=O)NC/C=C/C=C(\C)[C@H](OC)C(C)C2OC(\C=C/C=C/C=C(\C)C(=O)c3c(O)ccn(C)c3=O)[C@H](O)[C@@H]2O)C(O)C(O)C1(C)C (some centres not stated)
quantitative.result: -42
--
molecule: Clc1nc(Cl)nc(N2CCCc3ccccc32)n1
quantitative.result: -10
--
molecule: CCCC(C1=C(O)CC(C)CC1=O)C1=C(O)CC(C)CC1=O (configuration not stated)
quantitative.result: -6
--
molecule: CC(CO)CCC(=O)C(C)C1C(=O)CC2CC3CC(O)CCC3(C)CC21C (configuration not stated)
quantitative.result: 2
--
molecule: COc1ccc(CN2CCCN(Cc3ccc(OC)cc3OC)C2c2cc(Cl)cc(Cl)c2O)c(OC)c1
quantitative.result: 3
--
molecule: NC(=O)NOCC1NC(=O)NC1=O (configuration not stated)
quantitative.result: -3
--
molecule: CC(NNC(=S)N1CCCCCC1)c1cccnn1 (configuration not stated)
quantitative.result: 98
--
molecule: Cc1cc(N=[N+]=[N-])c2cc(C3CCCCC3)ccc2n1
quantitative.result: 0
--
molecule: CC(C)/C(Cl)=N/OC(=O)Nc1ccc(OC(F)(F)F)cc1
quantitative.result: -27
--
molecule: COc1ccc(C(c2c(O)c3ccccc3oc2=O)N2CCOCC2)cc1 (configuration not stated)
quantitative.result: -14
--
molecule: Clc1ccc(C2SCc3nc4ccccc4n32)cc1Cl (configuration not stated)
quantitative.result: 7
--
molecule: O=C1c2cc([N+](=O)[O-])cc3cc([N+](=O)[O-])cc(c23)C(=O)N1CCCNCCNCCCN1C(=O)c2cc([N+](=O)[O-])cc3cc([N+](=O)[O-])cc(c23)C1=O
quantitative.result: 9
--
molecule: CCCn1cc2c(SC)nc(SC)nc2n1
quantitative.result: 4
--
molecule: O=C(Cc1nc2ccccc2s1)Nc1cccc(C(F)(F)F)c1
quantitative.result: 35
--
molecule: CCC1([N+](=O)[O-])COC(c2ccc3c(c2)OCO3)OC1 (configuration not stated)
quantitative.result: 14
--
molecule: O=[N+]([O-])c1nccn1CCCNCCCn1ccnc1[N+](=O)[O-]
quantitative.result: 8
--
molecule: Cc1cc(C(=O)O)c(C)c2c1sc1ccccc12
quantitative.result: -11
--
molecule: CCN(CC)CCOc1ccc(-c2cc(-c3ccccc3)nc(N)n2)cc1
quantitative.result: 58
--
molecule: BrC1CCCCCC1
quantitative.result: 5
--
molecule: CC1=C(C)C(=O)C(C(C)(C)CC(=O)n2cc(F)c(=O)[nH]c2=O)=C(C)C1=O
quantitative.result: 0
--
molecule: COc1cccc2c1C(=O)c1c(O)c3c(c(O)c1C2=O)CC(O)(C(C)=O)CC3OC1OC(COC(C)=O)C(OC(C)=O)C(OC(C)=O)C1OC(C)=O (configuration not stated)
quantitative.result: 2
--
molecule: CCCCCCCCCCCCCCCCSC(=NC)NC
quantitative.result: 84
--
molecule: Fc1cccc(CSc2n[nH]c(=S)c3nc[nH]c23)c1
quantitative.result: -2
--
molecule: CCC(=C(c1ccc(OCCN(C)C)cc1)c1cccc(O)c1)c1ccccc1 (mixture of isomers)
quantitative.result: 23
--
molecule: C=C1CCC[C@@]2(C)CC[C@@H](/C(C)=C\C=C\C(C)(C)O)C[C@H]12
quantitative.result: 2
--
molecule: C/C=C(\C)C(=O)OC1C2C(C)=CC(=O)C(O)C2(C)C2C3(O)OCC24C1OC(=O)C(O)C4C(C)C3O (configuration not stated)
quantitative.result: -13
--
molecule: CCOC(=O)C(NC(C)=O)[CH](c1ccccc1)[Sn]([Cl])([c]1ccccc1)[c]1ccccc1 (configuration not stated)
quantitative.result: -14
--
molecule: CCOC(=O)/C(C#N)=C\c1ccc(N(CCC(=O)O)CCC(=O)O)c(I)c1
quantitative.result: 35
--
molecule: CC(=O)Oc1ccccc1N(C(C)=O)S(=O)(=O)c1ccc(C)cc1
quantitative.result: -2
--
molecule: Cc1cccc2c1nc1ccccc1[n+]2C
quantitative.result: -2
--
molecule: O=C(O)Cc1ccc2ccccc2c1-c1ccccc1
quantitative.result: -11
--
molecule: O=C(/C=C\c1ccc(Cl)c(Cl)c1)c1cccs1
quantitative.result: -4
--
molecule: CS(=O)(=O)OCC(COS(C)(=O)=O)C(c1ccccc1)c1ccccc1Br (configuration not stated)
quantitative.result: -1
--
molecule: COc1ccc(C(C)(C)c2cc3c(cc2OCCO)OCO3)cc1
quantitative.result: 13
--
molecule: N=C(N)c1ccc(SCCCCCSc2ccc(C(=N)N)cc2)cc1
quantitative.result: 23
--
molecule: Cc1cc(NCCCCCCCCNc2cc(C)nc3cc(N(C)C)ccc23)c2ccc(N(C)C)cc2n1
quantitative.result: 57

* * *

Assay: NCI Yeast Anticancer Drug Screen. Data for the sgs1 mgt1 strain (AID 161);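 note: 0% = growth of cultures given vehicle only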
Settings: S. cerevisiae sgs1 mgt1 strain, at 50.0 µM (retest, dose inferred, filed as 5.0)
The panel holds about 79,000 compounds, 15% with a hit somewhere; the sample as a whole holds those more often. Calls of active or inactive are those of the source. Cut-off read from the data, not from the text of the source: active = growth inhibition above about 70%; inactive = the rest. *1 amine or outer side, *2 acyl side, *3 side chain or, on linkers, in order; H or OH if unused. Where a SMILES comes first, the peptide text is derived from it. Bridges are numbered along the chain shown (N, C = ends). [ ]: non-standard residue; d: D form. The star is where a group is joined. ξ: configuration not given here. ξOrn(4,5-diOH) = O=C(C(CC(O)C(O)N[*:3])N[*:1])[*:2]; ξhTyr(βξ-OH,γξ-OH) = NC(C(=O)O)C(O)C(O)c1ccc(O)cc1; ξPro(3ξ-OH,4ξ-Me) = CC1CNC(C(=O)O)C1O; X1 = CCCCC/C=C/C/C=C\CCCCCCCC(=O)*; Hyp = O=C(O)[CH]1C[CH](O)CN1
Labels: active, inactive

compound: O=C(OCCC1CCCCC1)c1cc([N+](=O)[O-])cc([N+](=O)[O-])c1
category.label: active

compound: C=C1N(S(=O)(=O)c2ccc(C)cc2)C(=O)OCC12CCCC2
category.label: inactive

compound: Cc1c(C2Cc3ccccc3N2C(=O)/C=C\C(=O)O)c2ccccc2n1C (centres undefined)
category.label: inactive

compound: CCCCCCCCC1(C(=O)OCCN(CC)CC)CCCCC1
category.label: active

compound: Cc1cc(N(CCOS(C)(=O)=O)CCOS(C)(=O)=O)ccc1C=Nc1ccccc1C(=O)O
category.label: inactive

compound: CN1C(C)(C)CC(O)(C#N)CC1(C)C
category.label: active

compound: N=C(N)c1ccc(Nc2ccc(C(=N)N)cc2)cc1
category.label: inactive

compound: CC(=O)NNc1nc(C)c(C(=O)NNC(=O)C(=O)Nc2c(C)cccc2C(C)C)s1
category.label: active

compound: CC/C=C(\C)CC(C)O (centres undefined)
category.label: inactive

compound: COc1cc(NCC(C#N)C#N)ccc1N=Nc1ccc(Cl)cc1
category.label: active

compound: O=C(C(=O)n1ncc(Cl)c(Cl)c1=O)n1ncc(Cl)c(Cl)c1=O
category.label: inactive

compound: COc1cc(C2C=C(c3ccccc3)Oc3cc4c(cc32)OCO4)cc(OC)c1OC (centres undefined)
category.label: inactive

compound: CC(=O)c1ccc2c(c1)CC1(C2)Cc2ccccc2C1=O (centres undefined)
category.label: inactive

compound: Cc1ccc[n+](CC(=O)C2CCC3CC4CCCCC4CC3C2)c1 (centres undefined)
category.label: inactive

compound: CCCN(Cc1ccccc1)S(=O)(=O)c1ccc(C)cc1
category.label: active

compound: O=[N+]([O-])c1ccc(O)c(-c2ccccc2)c1
category.label: active

compound: CC(C)(C)C1=CC(N2CCCCC2)(C(C)(C)C)C=C(C(C)(C)C)C1=O
category.label: active

compound: CCCCC/C=C/C/C=C\CCCCCCCC(=O)NC1CC(O)C(O)NC(=O)C2C(O)C(C)CN2C(=O)C(C(C)O)NC(=O)C(C(O)C(O)c2ccc(O)cc2)NC(=O)C2CC(O)CN2C(=O)C(C(C)O)NC1=O (stereo not drawn) (X1-[ξOrn(4,5-diOH)]T[Hyp][ξhTyr(βξ-OH,γξ-OH)]T[ξPro(3ξ-OH,4ξ-Me)]; lactam 1-C; configuration not given here)
category.label: active

compound: COc1cc(CC#N)c(NC(C)=O)cc1OC
category.label: inactive

compound: CCc1cccc(C(C)(C)C)c1NC(=S)N/C=C(\C#N)C(=O)c1ccc2ccccc2c1
category.label: inactive

compound: ClC(Cl)(Cl)/C=C/c1cnc2ccccc2n1
category.label: active

compound: COc1cc(NCCCCCNC2CCCCC2)c2ncccc2c1
category.label: inactive

compound: CC(C)C(O)(C(=O)OCN1C(=O)C2C3C=CC(C2C1=O)C1C2C(=O)N(COC(=O)C(O)(C(C)C)C(C)O)C(=O)C2C31)C(C)O (centres undefined)
category.label: inactive

compound: CCCc1cc(=O)oc2c3c(c4c(c12)OC(C)(C)CC4)O[C@H](C)[C@H](C)C3=O
category.label: active
